Test Readout: melting point

1) Cc1c2ccc(-c3nn(C(C)c4oc5ccccc5c(=O)c4-c4cccc(F)c4)c4ncnc(N)c34)cc2nn1C (stereo not shown) [Example 171] ... 269 to 274 °C

Would you mind giving melting point for every compound in the list below?
1. CC(c1oc2ccccc2c(=O)c1-c1cccc(F)c1)n1nc(-c2ccc(N(C)C)cc2)c2c(N)ncnc21 (stereo not shown) [Example 148]
2. CC(c1oc2ccccc2c(=O)c1-c1cccc(F)c1)n1nc(-c2ccc(O)c(F)c2)c2c(N)ncnc21 (stereo not shown) [Example 85]

Result:
["214 to 217 °C", "244 to 247 °C"]

Q: Quick one: melting point for CC(c1oc2ccccc2c(=O)c1-c1cccc(F)c1)n1nc(C#CCO)c2c(N)ncnc21 (stereo not shown) [Example 83] ?
Result: 171 to 173 °C

----------
Target Or System: P110 δ/Pi3K δ (Homo sapiens, UniProt O00329)
Sequence (O00329 whole entry, canonical isoform): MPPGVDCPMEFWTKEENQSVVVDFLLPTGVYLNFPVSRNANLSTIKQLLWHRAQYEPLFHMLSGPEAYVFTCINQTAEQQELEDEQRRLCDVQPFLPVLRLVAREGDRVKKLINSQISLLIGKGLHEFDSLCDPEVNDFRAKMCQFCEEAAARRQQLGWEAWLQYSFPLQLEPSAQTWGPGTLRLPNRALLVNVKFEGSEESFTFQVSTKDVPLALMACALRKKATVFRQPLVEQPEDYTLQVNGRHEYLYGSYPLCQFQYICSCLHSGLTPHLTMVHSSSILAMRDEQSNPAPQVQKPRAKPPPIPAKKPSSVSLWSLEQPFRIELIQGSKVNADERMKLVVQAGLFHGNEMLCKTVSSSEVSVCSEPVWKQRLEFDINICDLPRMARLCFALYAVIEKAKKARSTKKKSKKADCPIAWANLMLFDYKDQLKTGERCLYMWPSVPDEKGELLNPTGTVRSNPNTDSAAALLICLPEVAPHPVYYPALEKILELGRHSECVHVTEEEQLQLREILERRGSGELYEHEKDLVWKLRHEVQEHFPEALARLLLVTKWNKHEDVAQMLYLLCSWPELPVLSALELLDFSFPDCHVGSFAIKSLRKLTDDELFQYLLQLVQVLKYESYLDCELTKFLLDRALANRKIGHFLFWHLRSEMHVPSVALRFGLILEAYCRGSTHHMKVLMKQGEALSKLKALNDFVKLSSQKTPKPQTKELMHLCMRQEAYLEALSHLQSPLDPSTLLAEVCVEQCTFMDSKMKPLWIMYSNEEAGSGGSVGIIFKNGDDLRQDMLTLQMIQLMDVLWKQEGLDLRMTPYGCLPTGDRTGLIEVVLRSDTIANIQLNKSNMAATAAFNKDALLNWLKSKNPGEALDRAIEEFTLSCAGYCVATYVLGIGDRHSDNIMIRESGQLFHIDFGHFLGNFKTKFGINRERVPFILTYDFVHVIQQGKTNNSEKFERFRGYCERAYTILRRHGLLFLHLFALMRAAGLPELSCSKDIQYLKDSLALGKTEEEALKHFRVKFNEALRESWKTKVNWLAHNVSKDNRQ
Sequence (P27986 whole entry partner, canonical isoform): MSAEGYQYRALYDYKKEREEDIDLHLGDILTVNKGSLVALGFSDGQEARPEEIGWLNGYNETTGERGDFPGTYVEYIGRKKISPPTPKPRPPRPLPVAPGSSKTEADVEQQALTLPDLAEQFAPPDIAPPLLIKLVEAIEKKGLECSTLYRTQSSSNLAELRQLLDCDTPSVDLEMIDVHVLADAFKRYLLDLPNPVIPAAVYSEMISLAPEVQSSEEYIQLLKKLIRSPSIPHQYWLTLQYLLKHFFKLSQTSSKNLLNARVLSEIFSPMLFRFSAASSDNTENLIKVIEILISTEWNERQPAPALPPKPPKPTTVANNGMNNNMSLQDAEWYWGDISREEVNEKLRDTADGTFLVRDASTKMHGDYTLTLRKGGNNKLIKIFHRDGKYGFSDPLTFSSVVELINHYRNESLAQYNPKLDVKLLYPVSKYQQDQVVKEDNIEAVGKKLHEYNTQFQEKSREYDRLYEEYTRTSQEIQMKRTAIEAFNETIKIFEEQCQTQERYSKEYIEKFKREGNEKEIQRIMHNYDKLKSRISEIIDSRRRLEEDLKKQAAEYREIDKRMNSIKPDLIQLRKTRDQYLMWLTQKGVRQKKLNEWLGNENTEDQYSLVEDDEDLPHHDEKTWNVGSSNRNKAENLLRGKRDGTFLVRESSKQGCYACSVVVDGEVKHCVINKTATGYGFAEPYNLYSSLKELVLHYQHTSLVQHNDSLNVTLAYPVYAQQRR
Experiment: Fluorescent (HTRF) determination of PI3K enzyme activity, δ isoform
Type: biochemical
Set-up: dose or concentration left out as unconfirmed
Field: inhibition. Provide a value for each of the compounds that follow.

1. Cc1n[nH]c2cc(-c3nn(C(C)c4oc5ccc(F)cc5c(=O)c4-c4cccc(F)c4)c4ncnc(N)c34)ccc12 (stereo not shown) ... 50 to 100%
2. CC(c1oc2ccccc2c(=O)c1-c1cccc(F)c1)n1nc(-c2ccc(CN)s2)c2c(N)ncnc21 (stereo not shown) [Example 102a] ... < 50%
3. O=c1c(-c2ccccc2)c(CNc2ncnc3[nH]cnc23)oc2ccc(F)cc12 ... < 50%

Here is the next item to consider.
Q: Find inhibition (P110 δ/Pi3K δ (Homo sapiens, UniProt O00329)) for the entry CC(c1oc2ccccc2c(=O)c1-c1cccc(F)c1)n1ncc2c(Cl)ncnc21 (stereo not shown)
Result: < 50%

----------
I'd appreciate it if you could supply melting point values for the items below.

1. CC(c1oc2ccccc2c(=O)c1-c1cccc(F)c1)n1nc(-c2ccc(OCc3ccccc3)c(Cl)c2)c2c(N)ncnc21 (stereo not shown) [Example 140] ... 214 to 216 °C
2. Nc1ncnc2c1cnn2Cc1oc2ccc(Br)cc2c(=O)c1-c1ccccc1 [Example 14] ... 236 to 240 °C
3. CC(c1oc2ccccc2c(=O)c1-c1cccc(F)c1)n1nc(-c2cc3ccccc3s2)c2c(N)ncnc21 (stereo not shown) [Example 151] ... 242 to 245 °C
4. CC(c1oc2ccccc2c(=O)c1-c1cccc(F)c1)n1nc(-c2cccc3c2oc2ccccc23)c2c(N)ncnc21 (stereo not shown) [Example 138] ... 238 to 240 °C
5. Nc1ncnc2c1c(CCCO)nn2Cc1oc2ccccc2c(=O)c1-c1ccccc1 [Example 64] ... 182 to 184 °C

Would you mind giving melting point for every compound in the list below?
1. CC(c1oc2ccccc2c(=O)c1-c1cccc(F)c1)n1nc(-c2ccc(N3CCOCC3)nc2)c2c(N)ncnc21 (stereo not shown) [Example 137]
2. Nc1ncnc2c1ncn2Cc1oc2ccc(F)cc2c(=O)c1-c1ccccc1 [Example 118]
3. CC(C)Oc1ccc(F)c(-c2nn(C(C)c3oc4ccccc4c(=O)c3-c3cccc(F)c3)c3ncnc(N)c23)c1 (stereo not shown) [Example 132]
4. CC(c1oc2ccccc2c(=O)c1-c1cccc(F)c1)n1nc(-c2csc(C=O)c2)c2c(N)ncnc21 (stereo not shown) [Example 113]
5. Cn1c(=O)c2c(ncn2Cc2oc3ccc(Br)cc3c(=O)c2-c2ccccc2)n(C)c1=O [Example 20]
6. CC(c1oc2ccccc2c(=O)c1-c1cccc(F)c1)n1nc(-c2cccc(C(=O)N3CCOCC3)c2)c2c(N)ncnc21 (stereo not shown) [Example 177]
7. Nc1ncnc2c1ncn2Cc1oc2ccc(Br)cc2c(=O)c1-c1ccc(F)cc1 [Example 15]
8. CC(c1oc2ccccc2c(=O)c1-c1ccccc1)n1nc(-c2cn[nH]c2)c2c(N)ncnc21 (stereo not shown) [Example 69]

Result:
1. 269 to 271 °C
2. 207 to 209 °C
3. 198 to 201 °C
4. 192 to 195 °C
5. 253 to 255 °C
6. 104 to 106 °C
7. 238 to 242 °C
8. 214 to 217 °C

Hey, quick one: what's melting point for each of these?
1. O=c1c(-c2ccccc2)c(Cn2ccnc2)oc2ccccc12 [Example 12]
2. CC(c1oc2ccccc2c(=O)c1-c1cccc(F)c1)n1nc(-c2ccc3cn[nH]c3c2)c2c(N)ncnc21 (stereo not shown) [Example 80]

Result:
["168 to 171 °C", "206 to 208 °C"]

Q: GET /values?readout=melting point&item= CC(c1oc2ccccc2c(=O)c1-c1cccc(F)c1)n1nc(-c2ccccc2CO)c2c(N)ncnc21 (stereo not shown) [Example 81]
Result: 185 to 189 °C

----------
Assignment: determine reported melting point for the given molecules.

Solved cases (3 shown):
1. COc1cccc(-c2nn(Cc3oc4ccccc4c(=O)c3-c3cccc(F)c3)c3ncnc(N)c23)c1 [Example 54] ... 175 to 178 °C
2. CC(c1oc2ccccc2c(=O)c1-c1cccc(F)c1)n1nc(-c2cnc(N)nc2)c2c(N)ncnc21 (stereo not shown) [Example 93] ... 264 to 268 °C
3. Cc1noc(C)c1-c1nn(C(C)c2oc3ccccc3c(=O)c2-c2cccc(F)c2)c2ncnc(N)c12 (stereo not shown) [Example 153] ... 218 to 222 °C

Let us examine a further case.
Q: Sample CC(c1oc2ccccc2c(=O)c1-c1cccc(F)c1)n1nc(-c2ccc(Cl)s2)c2c(N)ncnc21 (stereo not shown) [Example 152] — what was its melting point?
Result: 226 to 229 °C

----------
Exercise: for every item that follows, state its recorded melting point.

As a guide, the following entries are already answered.
1. Cc1n[nH]c2cc(-c3nn(C(C)c4oc5ccc(F)cc5c(=O)c4-c4ccccc4)c4ncnc(N)c34)ccc12 (stereo not shown) ... 253 to 255 °C
2. CC(c1oc2ccccc2c(=O)c1-c1cccc(F)c1)n1nc(-c2cccc(OC(F)(F)F)c2)c2c(N)ncnc21 (stereo not shown) ... 155 to 157 °C
3. Nc1ncnc2c1c(-c1cccc(O)c1)nn2Cc1oc2ccccc2c(=O)c1-c1ccccc1 ... 154 to 158 °C
4. CC(c1oc2ccccc2c(=O)c1-c1cccc(F)c1)n1nc(-c2ccc(F)cc2O)c2c(N)ncnc21 (stereo not shown) [Example 90a] ... 235 to 237 °C
5. CC(c1oc2ccccc2c(=O)c1-c1cccc(F)c1)n1nc(-c2cccc(N(C)C)c2)c2c(N)ncnc21 (stereo not shown) ... 218 to 220 °C
6. CC(c1oc2ccccc2c(=O)c1-c1cccc(F)c1)n1nc(-c2ccc3[nH]ccc3c2)c2c(N)ncnc21 (stereo not shown) ... 197 to 199 °C

Q: May I ask what melting point has been recorded for Cc1nc2cc(-c3nn(C(C)c4oc5ccccc5c(=O)c4-c4cccc(F)c4)c4ncnc(N)c34)ccc2[nH]1 (stereo not shown) ?
Result: 154 to 156 °C

----------
Please go through the items and note down their melting point.

Recorded results for 6 compounds are shown here.
1) Nc1ncnc2c1c(-c1cc(O)cc(F)c1)nn2Cc1oc2ccccc2c(=O)c1-c1ccccc1 [Example 66a] ... 260 to 262 °C
2) CC(c1oc2ccccc2c(=O)c1-c1cccc(F)c1)n1nc(-c2ccc(CN)s2)c2c(N)ncnc21 (stereo not shown) [Example 102a] ... 275 to 278 °C
3) Nc1ncnc2c1c(-c1cn[nH]c1)nn2Cc1oc2ccccc2c(=O)c1-c1ccccc1 ... 235 to 237 °C
4) Nc1ncnc2c1c(-c1cccc(O)c1)nn2Cc1oc2ccccc2c(=O)c1-c1cccc(F)c1 ... 280 to 283 °C
5) CCc1n[nH]c2cc(-c3nn(C(C)c4oc5ccccc5c(=O)c4-c4cccc(F)c4)c4ncnc(N)c34)ccc12 (stereo not shown) ... 270 to 273 °C
6) COc1ncc(-c2nn(C(C)c3oc4ccccc4c(=O)c3-c3cccc(F)c3)c3ncnc(N)c23)cn1 (stereo not shown) ... 224 to 227 °C

Q: I would be grateful if you could share the reported melting point for CC(c1oc2ccccc2c(=O)c1-c1cccc(F)c1)n1nc(-c2ccc(OCc3ccccc3)cc2)c2c(N)ncnc21 (stereo not shown) .
Result: 176 to 178 °C

----------
So I've got a bunch of compounds here, and I need their inhibition at 1 µM values.
Target Or System: P110β (Homo sapiens)
Sequence (P42338 whole entry, canonical isoform): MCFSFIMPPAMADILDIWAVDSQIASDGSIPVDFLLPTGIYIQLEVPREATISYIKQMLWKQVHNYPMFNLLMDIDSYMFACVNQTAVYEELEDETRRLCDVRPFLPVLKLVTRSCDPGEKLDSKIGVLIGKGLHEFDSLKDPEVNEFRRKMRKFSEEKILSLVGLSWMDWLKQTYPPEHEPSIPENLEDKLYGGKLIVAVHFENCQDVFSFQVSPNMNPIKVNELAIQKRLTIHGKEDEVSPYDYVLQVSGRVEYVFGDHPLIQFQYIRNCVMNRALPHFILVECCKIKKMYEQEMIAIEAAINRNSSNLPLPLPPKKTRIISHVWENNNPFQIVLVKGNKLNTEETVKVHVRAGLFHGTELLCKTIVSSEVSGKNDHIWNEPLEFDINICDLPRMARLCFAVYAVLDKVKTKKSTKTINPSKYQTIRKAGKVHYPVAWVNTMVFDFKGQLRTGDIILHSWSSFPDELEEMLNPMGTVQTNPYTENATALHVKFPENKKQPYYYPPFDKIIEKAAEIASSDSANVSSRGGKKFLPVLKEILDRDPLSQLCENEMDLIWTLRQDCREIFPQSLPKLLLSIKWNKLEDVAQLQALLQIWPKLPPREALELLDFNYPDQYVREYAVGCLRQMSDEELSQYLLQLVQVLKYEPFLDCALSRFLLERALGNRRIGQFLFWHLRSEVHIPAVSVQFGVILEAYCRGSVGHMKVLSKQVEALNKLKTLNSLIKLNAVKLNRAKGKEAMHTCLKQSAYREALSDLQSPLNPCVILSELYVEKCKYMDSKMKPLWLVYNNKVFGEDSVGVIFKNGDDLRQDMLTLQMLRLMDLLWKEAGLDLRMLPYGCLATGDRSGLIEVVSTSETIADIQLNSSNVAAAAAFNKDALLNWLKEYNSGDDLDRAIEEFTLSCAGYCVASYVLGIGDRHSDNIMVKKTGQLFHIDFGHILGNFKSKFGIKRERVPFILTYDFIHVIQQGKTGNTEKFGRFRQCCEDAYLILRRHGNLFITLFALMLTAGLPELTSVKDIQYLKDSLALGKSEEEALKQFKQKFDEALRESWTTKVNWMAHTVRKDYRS
Sequence (P27986 whole entry partner, canonical isoform): as the sequence (P27986 whole entry partner, canonical isoform) above
Experiment: Fluorescent (HTRF) determination of PI3K enzyme activity, β isoform
Type: biochemical

Worked cases, inhibition at 1 µM given:
1. CC(C)Oc1ccc(-c2nn(C(C)c3oc4ccccc4c(=O)c3-c3cccc(F)c3)c3ncnc(N)c23)cc1Cl (stereo not drawn) [Example 141] ... 25 to 50%
2. Nc1ncnc2c1ncn2Cc1oc2ccc(Br)cc2c(=O)c1-c1ccccc1 [Example 1] ... < 25%
3. COc1cccc(-c2nn(C(C)c3oc4ccccc4c(=O)c3-c3cccc(F)c3)c3ncnc(N)c23)c1 (stereo not drawn) [Example 51] ... 50 to 100%
4. C[C@H](Nc1ncnc2[nH]cnc12)c1oc2ccc(F)cc2c(=O)c1-c1cccc(F)c1 [Example 74] ... 25 to 50%
5. CC(c1oc2ccccc2c(=O)c1-c1cccc(F)c1)n1nc(-c2ccc(Oc3ccccc3)cc2)c2c(N)ncnc21 (stereo not drawn) [Example 139] ... 25 to 50%
6. O=c1c(-c2ccccc2)c(CNc2ncnc3[nH]cnc23)oc2ccc(F)cc12 [Example 123] ... < 25%

Field: inhibition at 1 µM. Fill in for each record below.
1. CC(c1oc2ccccc2c(=O)c1-c1ccccc1)n1cnc2c(N)ncnc21 (stereo not drawn) [Example 23]
2. Cc1nc2cc(-c3nn(C(C)c4oc5ccccc5c(=O)c4-c4cccc(F)c4)c4ncnc(N)c34)ccc2[nH]1 (stereo not drawn) [Example 115]
3. O=c1c(-c2cccc(F)c2)c(CNc2ncnc3[nH]cnc23)oc2ccc(F)cc12 [Example 122]
4. CCOc1cccc(-c2nn(C(C)c3oc4ccccc4c(=O)c3-c3cccc(F)c3)c3ncnc(N)c23)c1 (stereo not drawn) [Example 150]
5. O=c1c(-c2ccc(F)cc2)c(CN2CCOCC2)oc2ccc(Br)cc12 [Example 17]
6. Cc1n[nH]c2ccc(-c3nn(C(C)c4oc5ccccc5c(=O)c4-c4cccc(F)c4)c4ncnc(N)c34)cc12 (stereo not drawn) [Example 106]
7. CC(c1oc2ccccc2c(=O)c1-c1cccc(F)c1)n1nc(-c2ccc3c(c2)CCO3)c2c(N)ncnc21 (stereo not drawn) [Example 109]

Result:
["< 25%", "< 25%", "50 to 100%", "25 to 50%", "< 25%", "< 25%", "< 25%"]

Count: 6. Required value per item: inhibition at 1 µM.
1. Nc1ncnc2c1c(-c1cccc(O)c1)nn2Cc1oc2ccccc2c(=O)c1-c1cccc(F)c1 [Example 55]
2. CC(c1oc2ccccc2c(=O)c1-c1cccc(F)c1)n1nc(-c2ccc(OCc3ccccc3)cc2)c2c(N)ncnc21 (stereo not drawn) [Example 147]
3. C[C@H](Nc1ncnc2[nH]cnc12)c1oc2ccc(F)cc2c(=O)c1-c1ccccc1 [Example 57]
4. COc1cc(F)cc(-c2nn(Cc3oc4ccc(F)cc4c(=O)c3-c3cccc(F)c3)c3ncnc(N)c23)c1 [Example 120]
5. Nc1ncnc2c1ncn2Cc1oc2ccc(F)cc2c(=O)c1-c1ccccc1 [Example 118]
6. C[C@@H](Nc1ncnc2[nH]cnc12)c1oc2ccc(F)cc2c(=O)c1-c1cccc(F)c1 [Example 124]

Result:
1: < 25%; 2: 25 to 50%; 3: 25 to 50%; 4: < 25%; 5: 25 to 50%; 6: < 25%

Each of the following entries comes with a recorded value; kindly state inhibition at 1 µM for each.
1. CC(c1oc2ccccc2c(=O)c1-c1cccc(F)c1)n1nc(-c2cc3ccccc3s2)c2c(N)ncnc21 (stereo not drawn) [Example 151]
2. Nc1ncnc2c1ncn2Cc1oc2ccc(F)cc2c(=O)c1-c1cccc(F)c1 [Example 119]

Result:
1. 25 to 50%
2. < 25%
